What follows is a record of GI50 for SK-MEL-5 melanoma.

Before answering, review these 6 worked examples.
{"compound": "CNNCc1ccc(C(=O)NC(C)C)cc1", "assayed-target": "SK-MEL-5 melanoma", "GI50": "> 500000 nM"}
{"compound": "CCCCCCCC/C=C/CCCCCCCC1=NC(C)(C)CN1C(C)C", "assayed-target": "SK-MEL-5 melanoma", "GI50": "1610 nM"}
{"compound": "COc1cc2ccc3c4c(OC)cc(OC)c(OC)c4c(=O)n(C)c3c2cc1OC", "assayed-target": "SK-MEL-5 melanoma", "GI50": "4110 nM"}
{"compound": "CN1CCC[C@@H]1CCO[C@](C)(c1ccccc1)c1ccc(Cl)cc1", "assayed-target": "SK-MEL-5 melanoma", "GI50": "1540 nM"}
{"compound": "S=c1nc2[nH]ncc2c(N/N=C/c2ccccc2)[nH]1", "assayed-target": "SK-MEL-5 melanoma", "GI50": "41300 nM"}
{"compound": "Cc1n[nH]c(=S)n1/N=C/c1ccc(F)c(Oc2ccccc2)c1", "assayed-target": "SK-MEL-5 melanoma", "GI50": "16100 nM"}

Okay, here is my list. What is GI50 for each of these?
1. c1cc(OCCN2CCCCCC2)ccc1CNc1ccc2nc(CCC3CCCCC3)[nH]c2c1
2. O=C(Nc1ccccc1)Nc1cccc(-n2cc(-c3ccncc3)c(-c3ccc(O)c(Cl)c3)n2)c1
3. CCOC(=O)/C(=C/c1ccc([N+](=O)[O-])cc1)C(=O)c1ccccc1
4. N.N.N.N.N.N.[I-].[Os]
5. CC1(C)CC(=O)C2=C(C1)NC(SSC1=C(C#N)C(c3ccc(F)cc3)C3=C(CC(C)(C)CC3=O)N1)=C(C#N)C2c1ccc(F)cc1 (stereo unspecified)

1. 1740 nM
2. 1780 nM
3. 1940 nM
4. > 100000 nM
5. 22.9 µg/mL

* * *

System: HL-60(TB) leukemia
assay-protocol: NCI tumour cell line growth inhibition, 48 h; in the data active = GI50 below about 0.43 µM; inactive = the rest
Response enum: active, inactive

{"compound": "CCOC(=O)c1c(-c2ccccc2)[n+](=O)c2ccc(Cl)cc2n1[O-]", "assigned-label": "inactive"}

Which result was noted for this compound in the test: COc1ccc(-c2cnc3ccnn3c2-c2cc(OC)c(OC)c(OC)c2)cc1 inactive

Which result was noted for this compound in the test: COc1cc(/C=C2\CN(C)C/C(=C\c3cc(OC)c(OC)c(OC)c3)C2=O)cc(OC)c1OC active

Which result was noted for this compound in the test: COc1ccc(/C=C2\CN(Cc3cn(CCCNc4ccnc5cc(Cl)ccc45)nn3)C/C(=C\c3ccc(OC)c(OC)c3)C2=O)cc1OC inactive

Which result was noted for this compound in the test: CCOC(=O)c1ccc(N(CCOS(C)(=O)=O)CCOS(C)(=O)=O)cc1C inactive

* * *

System: SF-295 CNS
Response enum: active, inactive

Which result was noted for this compound in the test: CCN(CC)CCOc1ccc(/C(=C(\C)Cc2ccc(OC)cc2)c2ccc(OC(=O)NCc3ccccc3)cc2)cc1 inactive

Which result was noted for this compound in the test: CCCc1cc2cc(-n3nc(C)c4c3CC(C)(C)CC4=O)cc(NC3CCC(O)CC3)c2c(=O)[nH]1 (configuration not stated) active

Which result was noted for this compound in the test: COc1cc(/C=C2\CN(C)C/C(=C\c3cc(OC)c(OC)c(OC)c3)C2=O)cc(OC)c1OC active

Which result was noted for this compound in the test: O=C1OCc2c1cc(F)cc2[N+](=O)[O-] inactive

Which result was noted for this compound in the test: COc1cc(/C=C/C(=O)c2ccc(Nc3ncnc4ccccc34)cc2)cc(OC)c1 inactive

Which result was noted for this compound in the test: CN(C)CCCN(c1nc(C(Cl)(Cl)Cl)ns1)c1nc(C(Cl)(Cl)Cl)ns1 inactive

Which result was noted for this compound in the test: N=C(N)c1ccc(-c2ccc(-c3ccc(Cl)cc3)o2)o1 inactive

Which result was noted for this compound in the test: CCOC(=O)c1ccc(N(CCOS(C)(=O)=O)CCOS(C)(=O)=O)cc1C inactive

Which result was noted for this compound in the test: COc1ccc(-c2cnc3ccnn3c2-c2cc(OC)c(OC)c(OC)c2)cc1 inactive

Which result was noted for this compound in the test: C=C1C(=O)O[C@H]2[C@H]1CC/C(COC(=O)CCCCCCCCC(=O)OC/C1=C/CC[C@@]3(C)O[C@H]3[C@H]3OC(=O)C(=C)[C@@H]3CC1)=C\CC[C@@]1(C)O[C@@H]21 inactive

Which result was noted for this compound in the test: COc1cc(C#N)cc(OC)c1OCCOCCOc1c(OC)cc(C#N)cc1OC inactive

Which result was noted for this compound in the test: COc1ccc(/C=C2\CN(Cc3cn(CCCNc4ccnc5cc(Cl)ccc45)nn3)C/C(=C\c3ccc(OC)c(OC)c3)C2=O)cc1OC inactive
